Recorded values, source patent US20050119231A1.

Test system: S. aureus UC-76
ASSAY DETAILS: Antibacterial microtitration assay (Test A), MIC
Type: cell-based
RECORDED CONDITIONS: Staphylococcus aureus, UC76; Gram Positive Bacteria; strain UC-76; read-out: Minimum Inhibitory Concentrations S. aureus UC-76
REPORTED PROPERTY: MIC (µg/mL)

# annotated cases, reported MIC shown
* Cc1c(N2CCC(C(O)c3ncco3)C2)c(F)cc2c(=O)n(N)c(=O)n(C3CC3)c12 (stereo not shown) [drawing 322] | 1
* Nn1c(=O)c2cc(F)c(N3C[C@@H](O)[C@@H](O)C3)nc2n(C2CC2)c1=O [drawing 337] | 2

(I) COc1c(N2CCC(C(O)c3ncco3)C2)c(F)cc2c(=O)n(N)c(=O)n(C3CC3)c12 (stereo not shown) [drawing 321]
(II) Nn1c(=O)c2cc(F)c(N3C[C@@H](CCO)[C@@H](CCO)C3)nc2n(C2CC2)c1=O [drawing 338]
Q: Pick one: I or II . Which has the bigger MIC number? Reply briefly: the label of your chosen item.
Result: I
(I: 0.5 µg/mL, II: 0.002 µg/mL)

###

System: E. coli EC-2549
ASSAY DETAILS: Antibacterial microtitration assay (Test A), MIC
Format: cell-based
RECORDED CONDITIONS: Escherichia coli, EC2549; Gram Negative Bacteria; strain EC-2549; read-out: Minimum Inhibitory Concentrations E. coli EC-2549
REPORTED PROPERTY: MIC (µg/mL)

Known results for molecules:
• Nn1c(=O)c2cc(F)c(N3C[C@@H](CO)[C@@H](CO)C3)nc2n(C2CC2)c1=O [drawing 330] = 16
• COc1c(N2CCC(C(O)C3(CO)CC3)C2)c(F)cc2c(=O)n(N)c(=O)n(C3CC3)c12 (centres unmarked) [drawing 316] = 8
• Cc1c(N2CCC(CO)C2)c(F)cc2c(=O)n(N)c(=O)n(C3CC3)c12 (centres unmarked) [drawing 311] = 4

(1) Cc1c(N2CCC(C(O)CO)C2)c(F)cc2c(=O)n(N)c(=O)n(C3CC3)c12 (centres unmarked) [drawing 317]
(2) COc1c(N2CCC(C(O)c3ncco3)C2)c(F)cc2c(=O)n(N)c(=O)n(C3CC3)c12 (centres unmarked) [drawing 312]
(3) COc1c(N2CCC(C(O)C(F)(F)F)C2)c(F)cc2c(=O)n(N)c(=O)n(C3CC3)c12 (centres unmarked) [drawing 318]
(4) Cc1c(N2CCC(C(O)c3ncco3)C2)c(F)cc2c(=O)n(N)c(=O)n(C3CC3)c12 (centres unmarked) [drawing 313]
Q: Please produce an ascending ranking of these molecules based on MIC. Put the labels in the requested order and write them down.
Result: 3, 1, 4, 2

###

System: S. aureus UC-76
ASSAY DETAILS: Antibacterial microtitration assay (Test A), MIC
Assay type: cell-based
RECORDED CONDITIONS: Staphylococcus aureus, UC76; Gram Positive Bacteria; strain UC-76; read-out: Minimum Inhibitory Concentrations S. aureus UC-76
REPORTED PROPERTY: MIC (µg/mL)

(A) Cc1c(N2C[C@](C)(CO)[C@](C)(CO)C2)c(F)cc2c(=O)n(N)c(=O)n(C3CC3)c12 [drawing 342]
(B) Nn1c(=O)c2cc(F)c(N3C[C@H](CO)[C@@H](CO)C3)nc2n(C2CC2)c1=O [drawing 336]
(C) COc1c(N2CCC(C(O)C(F)(F)F)C2)c(F)cc2c(=O)n(N)c(=O)n(C3CC3)c12 (stereo not shown) [drawing 327]
(D) Nn1c(=O)c2cc(F)c(N3C[C@@H](CO)[C@@H](CO)C3)nc2n(C2CC2)c1=O [drawing 335]
Q: Highest to lowest MIC: rank the entries shown above. Output spec: labels arranged per the requested ranking.
Result: A, B, D, C
